I'd appreciate it if you could supply kon values for the items below.
# tgt: T1, recombinant human nectin-4 (human, UniProt Q96NY8 32-349)
# T1 construct: nectin-4, human, recombinant; also called complete extracellular domain of nectin-4; source: bought: R&D Systems (Catalog number 2659-N4)
# T1 sequence (looked up): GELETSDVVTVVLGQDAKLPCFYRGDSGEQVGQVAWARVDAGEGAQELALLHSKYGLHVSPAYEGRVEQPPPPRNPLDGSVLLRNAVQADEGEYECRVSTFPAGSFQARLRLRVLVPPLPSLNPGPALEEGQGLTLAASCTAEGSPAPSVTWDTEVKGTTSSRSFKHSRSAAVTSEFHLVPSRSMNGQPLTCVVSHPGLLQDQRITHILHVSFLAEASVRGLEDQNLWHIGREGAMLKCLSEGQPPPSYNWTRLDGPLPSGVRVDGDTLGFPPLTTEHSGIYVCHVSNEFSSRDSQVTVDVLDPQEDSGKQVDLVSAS
# protocol notes: SPR; Biacore T200, human nectin-4 immobilised on CM5 chip by amine coupling, peptides as analytes, single-cycle kinetics, 25 °C, HBS-P+ pH 7.4, no DMSO, 1:1 binding model
# experimental context: both partners purified
Numbered stars: 1 amine (or outer) side, 2 acyl side, 3 side chain; on linkers, the order of the positions; unused ones are H or OH. Bridge positions count the residues as written; N and C are the ends. Square brackets hold non-standard residues; d marks the D form. * marks the point of attachment. (R)‑NODAGA = O=C(O)CN1CCN(CC(=O)O)CCN([C@H](CCC(=O)*)C(=O)O)CC1; DOTA = O=C(O)CN1CCN(CC(=O)O)CCN(CC(=O)*)CCN(CC(=O)O)CC1; TATA = O=C(CC[*:1])N1CN(C(=O)CC[*:2])CN(C(=O)CC[*:3])C1; 1Nal = N[C@@H](Cc1cccc2ccccc12)C(=O)O; 2Nal = N[C@@H](Cc1ccc2ccccc2c1)C(=O)O; Hyp = O=C(O)[C@@H]1C[C@@H](O)CN1; hArg = N=C(N)NCCCC[C@H](N)C(=O)O
Reply with just the number (in M⁻¹ s⁻¹).

Request: For the binder shown here, {DOTA}-CP[1Nal][dD]CM[hArg]DWSTP[Hyp]WC-NH2 (linker 1-5-15 via TATA) [1f] , give the reported kon.
Response: 8.76e+06

Request: Quick check: kon of {DOTA}-CP[2Nal][dD]CMRDWSTP[Hyp]WC-OH (linker 1-5-15 via TATA) [8d (N188)] ?
Response: 40000

Request: Sample {(R)‑NODAGA}-CP[2Nal][dD]CM[hArg]DWSTP[Hyp]WC-NH2 (linker 1-5-15 via TATA) [9] — what was its kon?
Response: 1.69e+07

Request: Param item = {(R)‑NODAGA}-CP[1Nal][dD]CM[hArg]DWSTP[Hyp]WC-NH2 (linker 1-5-15 via TATA; also: NODAGA complexed with natGa) [natGa-1e] ; retrieve measured kon.
Response: 1.1e+06

Request: Entry {(R)‑NODAGA}-CP[1Nal][dD]CM[hArg]DWSTP[Hyp]WC-NH2 (linker 1-5-15 via TATA) [1e] : reported kon = ?
Response: 1.21e+06

Request: Fill in the blank: the reported kon of {DOTA}-CP[2Nal][dD]CMRDWSTP[Hyp]WC-NH2 (linker 1-5-15 via TATA) [8c] is ____.
Response: 20000

Request: I would be grateful if you could share the reported kon for {(R)‑NODAGA}-CP[1Nal][dD]CMRDWSTP[Hyp]WC-NH2 (linker 1-5-15 via TATA) [10] .
Response: 1.11e+06

Request: Report kon for {(R)‑NODAGA}-CP[2Nal][dD]CMRDWSTP[Hyp]WC-NH2 (linker 1-5-15 via TATA) [8a] please.
Response: 680000
